Recorded values, source ChEMBL document CHEMBL1909294.

System: Hepatotoxicity;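 further: Hepatitis-related hepatic side effect score taken from the training data of DILIps, a prediction system for drug-induced liver injury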; further: call rule not given here
Entries and their HepSE_hepatitis
recorded.endpoint: HepSE_hepatitis

1. C[C@]12C=CC(=O)C=C1CC[C@@H]1[C@@H]2C(=O)C[C@@]2(C)[C@H]1CC[C@]2(O)C(=O)CO [PREDNISONE]    0
2. CC1(C)S[C@@H]2[C@H](NC(=O)C(C(=O)O)c3ccccc3)C(=O)N2[C@H]1C(=O)O (some centres undefined) [CARBENICILLIN]    0
3. C=C1CC[C@H](O)C/C1=C/C=C1\CCC[C@]2(C)[C@@H]([C@H](C)CCCC(C)C)CC[C@@H]12 [CHOLECALCIFEROL]    0
4. CCCCc1nc(N)[se]c1CCC    0
5. Clc1ccc(C(c2ccccc2Cl)C(Cl)Cl)cc1 (centres undefined) [MITOTANE]    0
6. C[C@@H]1O[C@@H]1P(=O)(O)O [FOSFOMYCIN]    0
7. CCCCCc1cc(O)c2c(c1)OC(C)(C)[C@@H]1CCC(C)=C[C@@H]21 [DRONABINOL]    0
8. c1ccc(CC2=NCCN2)cc1 [TOLAZOLINE]    1
9. CCC1(c2ccc(N)cc2)CCC(=O)NC1=O (centres undefined) [AMINOGLUTETHIMIDE]    0
10. C[C@@H](NCCCc1cccc(C(F)(F)F)c1)c1cccc2ccccc12    0
11. CCC1(C)CC(=O)NC1=O (centres undefined) [ETHOSUXIMIDE]    0
12. N#Cc1ccc(C(c2ccc(C#N)cc2)n2cncn2)cc1 [LETROZOLE]    0
13. Nc1nc2c(ncn2CCC(CO)CO)c(=O)[nH]1 [PENCICLOVIR]    0
14. CCOC(=O)c1cncn1[C@H](C)c1ccccc1 [ETOMIDATE]    0
15. CCCCc1nc(Cl)c(CO)n1Cc1ccc(-c2ccccc2-c2nn[nH]n2)cc1 [LOSARTAN]    1
16. C[C@]12CC[C@@H]3c4ccc(O)cc4CC[C@H]3[C@@H]1CC[C@@H]2O [ESTRADIOL]    1
17. CN1CCN(CCCN2c3ccccc3Sc3ccc(C(F)(F)F)cc32)CC1 [TRIFLUOPERAZINE]    0
18. NC[C@@H]1O[C@H](O[C@H]2[C@@H](O)[C@H](O[C@@H]3[C@@H](O)[C@H](N)C[C@H](N)[C@H]3O[C@H]3O[C@H](CO)[C@@H](O)[C@H](O)[C@H]3N)O[C@@H]2CO)[C@H](N)[C@@H](O)[C@@H]1O [PAROMOMYCIN]    0
19. CC1=C(C(=O)O)N2C(=O)[C@@H](NC(=O)[C@H](N)c3ccc(O)cc3)[C@H]2SC1 [CEFADROXIL]    0
20. Cc1cccc(C)c1NC(=O)C1CCCCN1C (centres undefined) [MEPIVACAINE]    0
21. CCCCC[C@](C)(O)/C=C/[C@@H]1[C@@H](C/C=C/CCCC(=O)O)[C@@H](O)C[C@H]1O    0
22. C[C@@H](CN1CC(=O)NC(=O)C1)N1CC(=O)NC(=O)C1 [DEXRAZOXANE]    0
23. C=C1/C(=C\C=C2/CCC[C@]3(C)[C@@H]([C@H](C)/C=C/[C@@H](O)C4CC4)CC[C@@H]23)C[C@@H](O)C[C@@H]1O [CALCIPOTRIENE]    0
24. CC(=O)O[C@H]1C[C@@H]2CC[C@@H]3[C@H](CC[C@@]4(C)[C@H]3C[C@H]([N+]3(C)CCCCC3)[C@@H]4OC(C)=O)[C@@]2(C)C[C@@H]1N1CCCCC1 [VECURONIUM]    0
